target: α7–GlyR mutant chimeric channels (Homo sapiens, UniProt P36544, L131A); assay: Membrane potential assay screen, mutant α7–GlyR chimeric channels; type: cell-based; conditions: EC50 at α7GlyR L131A, sheet 1d; single determinations
Sequence (P36544 23-228 L131A): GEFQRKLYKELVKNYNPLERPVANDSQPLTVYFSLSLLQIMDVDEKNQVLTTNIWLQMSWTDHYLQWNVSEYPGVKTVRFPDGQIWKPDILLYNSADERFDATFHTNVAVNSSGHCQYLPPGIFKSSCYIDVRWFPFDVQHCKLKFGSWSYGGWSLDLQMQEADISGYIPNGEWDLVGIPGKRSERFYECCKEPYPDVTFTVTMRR
Sequence (P23415 248-457 partner): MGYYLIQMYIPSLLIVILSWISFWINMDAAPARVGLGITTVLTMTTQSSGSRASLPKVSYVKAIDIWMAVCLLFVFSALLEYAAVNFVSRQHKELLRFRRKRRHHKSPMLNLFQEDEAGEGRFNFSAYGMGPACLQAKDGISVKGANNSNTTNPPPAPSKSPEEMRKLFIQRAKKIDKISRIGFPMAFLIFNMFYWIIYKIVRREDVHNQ
endpointLabel: EC50

[
  {
    "compound": "COC(=O)[C@H]1[C@@H](OC(=O)c2ccccc2)C[C@@H]2CC[C@H]1N2C [cocaine]",
    "measuredResult": "> 30 µM"
  }
]

====

biological target: α7–GlyR mutant chimeric channels (Homo sapiens, UniProt P36544, W77F); experiment: Membrane potential assay screen, mutant α7–GlyR chimeric channels; format: cell-based; settings: EC50 at a7 GlyR W77F, sheet 1d; single determinations
Sequence (P36544 23-230 W77F): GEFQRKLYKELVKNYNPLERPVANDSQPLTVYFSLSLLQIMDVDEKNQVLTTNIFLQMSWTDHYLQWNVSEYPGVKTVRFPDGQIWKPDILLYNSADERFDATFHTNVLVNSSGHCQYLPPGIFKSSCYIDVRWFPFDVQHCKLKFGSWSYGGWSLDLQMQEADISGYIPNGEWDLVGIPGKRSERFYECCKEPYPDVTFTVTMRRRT
Sequence (P23415 248-457 partner): as the sequence (P23415 248-457 partner) above
pEC50: −log10 of the molar value.
endpointLabel: pEC50

[
  {
    "compound": "COC(=O)[C@H]1[C@@H](OC(=O)c2ccccc2)C[C@@H]2CC[C@H]1N2C [cocaine]",
    "measuredResult": 5.47
  }
]

====

biological target: α7–5HT3 mutant chimeric channels (Homo sapiens, UniProt P36544, S170Y); experiment: cell-based
Sequence (P23979 242-489): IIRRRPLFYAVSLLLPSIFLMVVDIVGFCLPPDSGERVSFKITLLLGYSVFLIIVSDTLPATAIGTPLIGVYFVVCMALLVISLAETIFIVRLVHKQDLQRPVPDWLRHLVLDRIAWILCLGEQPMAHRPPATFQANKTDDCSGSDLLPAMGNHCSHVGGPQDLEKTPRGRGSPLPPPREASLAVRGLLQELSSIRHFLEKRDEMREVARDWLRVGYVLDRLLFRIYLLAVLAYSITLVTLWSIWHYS
Sequence (P36544 23-224 S170Y): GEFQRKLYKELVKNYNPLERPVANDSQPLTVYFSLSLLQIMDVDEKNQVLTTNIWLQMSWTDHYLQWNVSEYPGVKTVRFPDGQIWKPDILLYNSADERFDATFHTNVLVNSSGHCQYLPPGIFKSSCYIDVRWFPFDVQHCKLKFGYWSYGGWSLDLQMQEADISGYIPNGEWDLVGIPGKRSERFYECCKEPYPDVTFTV
pEC50: −log10 of the molar value.

[
  {
    "mol": "COC(=O)[C@H]1[C@@H](OC(=O)c2ccccc2)C[C@@H]2CC[C@H]1N2C",
    "pEC50": "< 4.52"
  }
]

====

target: α7–5HT3 mutant chimeric channels (Homo sapiens, UniProt P36544, Q139V); experiment: cell-based; assay type: cell-based, human α7 nAChR LBD, mouse 5HT3 IPD; conditions: read-out: EC50 at a7 5HT3 Q139V, Avg; sheet 1d; Avg
Sequence (P36544 23-224 Q139V, one chain of several): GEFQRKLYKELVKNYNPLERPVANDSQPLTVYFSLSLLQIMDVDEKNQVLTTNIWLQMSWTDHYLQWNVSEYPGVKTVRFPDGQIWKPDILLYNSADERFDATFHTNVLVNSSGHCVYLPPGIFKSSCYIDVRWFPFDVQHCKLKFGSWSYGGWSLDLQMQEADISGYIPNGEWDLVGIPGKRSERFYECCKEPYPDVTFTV

[
  {
    "mol": "COC(=O)[C@H]1[C@@H](OC(=O)c2ccccc2)C[C@@H]2CC[C@H]1N2C",
    "EC50": "> 30 µM"
  }
]

====

target: α7–GlyR mutant chimeric channels (Homo sapiens, UniProt P36544, Q79G); experiment: Membrane potential assay screen, mutant α7–GlyR chimeric channels; type: cell-based; conditions: EC50 at α7-GlyR Q79G, Avg, sheet 1d
Sequence (P36544 23-230 Q79G): as the sequence (P36544 23-230 W77F) above, with F55W, Q57G counted along it
Sequence (P23415 248-457 partner): as the sequence (P23415 248-457 partner) above

[
  {
    "mol": "COC(=O)[C@H]1[C@@H](OC(=O)c2ccccc2)C[C@@H]2CC[C@H]1N2C",
    "EC50": "> 30 µM"
  }
]

====

target: coca-5HT3 (α7(L141G,G175K,Y210F,Y217F)–5HT3) (Homo sapiens, UniProt P36544, G175K/L141G/Y210F/Y217F); experiment: Membrane potential assay, coca-5HT3 in HEK293; settings: coca-5HT3; conc 3.7 uM; ED Fig 3b
Sequence (P36544 23-224 L141G/G175K/Y210F/Y217F, one chain of several): as the sequence (P36544 23-224 Q139V, one chain of several) above, with V117Q, L119G, G153K, Y188F, Y195F counted along it

[
  {
    "molecule": "CC[N+]1(C)[C@@H]2CC(OC(=O)[C@H](CO)c3ccccc3)C[C@H]1[C@@H]1O[C@@H]12 (stereo partly shown)",
    "Max normalized Response": 0.04777
  },
  {
    "molecule": "CN1[C@@H]2CC[C@H]1C[C@@H](OC(c1ccccc1)c1ccccc1)C2",
    "Max normalized Response": 0.1399
  },
  {
    "molecule": "CN1[C@@H]2C[C@@H](OC(=O)[C@H](CO)c3ccccc3)C[C@H]1[C@@H]1O[C@@H]12",
    "Max normalized Response": 0.06448
  },
  {
    "molecule": "C[N+]1(C)[C@@H]2CC[C@H]1C[C@@H](OC(=O)C(CO)c1ccccc1)C2 (stereo partly shown)",
    "Max normalized Response": 0.07315
  }
]

====

target: coca-5HT3 (Homo sapiens, UniProt P36544, G175K/L141G/Y210F/Y217F); experiment: [^3H]ASEM displacement, membranes of HEK293 cells expressing coca-5HT3; assay type: binding, human α7 nAChR LBD, mouse 5HT3 IPD; settings: Two sites - Fit Ki, MEAN of 3 experiments; read-out: KiHi MEAN
Sequence (P23979 242-489): as the sequence (P23979 242-489) above
Sequence (P36544 23-224 L141G/G175K/Y210F/Y217F): as the sequence (P36544 23-224 S170Y) above, with L119G, Y148S, G153K, Y188F, Y195F counted along it
endpointLabel: Ki

[
  {
    "mol": "COC(=O)[C@H]1[C@@H](OC(=O)c2ccccc2)C[C@@H]2CC[C@H]1N2C",
    "measuredResult": "1.62 nM"
  }
]

====

target: α7–GlyR mutant chimeric channels (Homo sapiens, UniProt P36544, L141P); experiment: Membrane potential assay screen, mutant α7–GlyR chimeric channels; assay type: cell-based; details: EC50 at α7 GlyR L141P, sheet 1d; single determinations
Sequence (P36544 23-230 L141P): as the sequence (P36544 23-230 W77F) above, with F55W, L119P counted along it
Sequence (P23415 247-457 partner): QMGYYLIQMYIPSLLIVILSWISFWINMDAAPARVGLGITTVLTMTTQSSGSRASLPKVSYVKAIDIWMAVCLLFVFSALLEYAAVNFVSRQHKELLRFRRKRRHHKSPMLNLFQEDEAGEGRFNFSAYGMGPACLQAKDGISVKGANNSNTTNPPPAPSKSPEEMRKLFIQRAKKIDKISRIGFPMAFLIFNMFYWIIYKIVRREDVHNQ
pEC50: −log10 of the molar value.

[
  {
    "mol": "COC(=O)[C@H]1[C@@H](OC(=O)c2ccccc2)C[C@@H]2CC[C@H]1N2C",
    "testedTarget": "α7–GlyR mutant chimeric channels (Homo sapiens, UniProt P36544, L141P)",
    "pEC50": "< 4.52"
  }
]

====

target: α7–5HT3 mutant chimeric channels (Homo sapiens, UniProt P36544, L131G); assay: cell-based; format: cell-based, human α7 nAChR LBD, mouse 5HT3 IPD; details: read-out: EC50 at α75HT3 L131G; sheet 1d; single determinations
pEC50: −log10 of the molar value.
endpointLabel: pEC50

[
  {
    "compound": "COC(=O)[C@H]1[C@@H](OC(=O)c2ccccc2)C[C@@H]2CC[C@H]1N2C [cocaine]",
    "testedTarget": "α7–5HT3 mutant chimeric channels (Homo sapiens, UniProt P36544, L131G)",
    "measuredResult": "< 4.52"
  }
]

====

biological target: α7–GlyR mutant chimeric channels (Homo sapiens, UniProt P36544, L131G); test: Membrane potential assay screen, mutant α7–GlyR chimeric channels; format: cell-based; details: EC50 at α7GlyR L131G, sheet 1d; single determinations
Sequence (P36544 23-229 L131G): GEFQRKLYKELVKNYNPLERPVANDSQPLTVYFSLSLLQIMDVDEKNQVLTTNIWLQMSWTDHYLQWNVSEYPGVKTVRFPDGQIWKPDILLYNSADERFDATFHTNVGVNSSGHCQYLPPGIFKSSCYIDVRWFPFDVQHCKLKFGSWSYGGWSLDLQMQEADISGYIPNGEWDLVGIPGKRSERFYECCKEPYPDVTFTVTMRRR
Sequence (P23415 248-457 partner): as the sequence (P23415 248-457 partner) above

[
  {
    "mol": "COC(=O)[C@H]1[C@@H](OC(=O)c2ccccc2)C[C@@H]2CC[C@H]1N2C",
    "EC50": "> 30 µM"
  }
]

====

biological target: coca-GlyR (α7(L141G,G175K,Y217F)–GlyR) (Homo sapiens, UniProt P23415+P36544, G175K/L141G/Y217F); assay: Membrane potential assay, coca-GlyR in HEK293
Sequence (P36544+P23415 fused P36544:L141G/P36544:G175K/P36544:Y217F): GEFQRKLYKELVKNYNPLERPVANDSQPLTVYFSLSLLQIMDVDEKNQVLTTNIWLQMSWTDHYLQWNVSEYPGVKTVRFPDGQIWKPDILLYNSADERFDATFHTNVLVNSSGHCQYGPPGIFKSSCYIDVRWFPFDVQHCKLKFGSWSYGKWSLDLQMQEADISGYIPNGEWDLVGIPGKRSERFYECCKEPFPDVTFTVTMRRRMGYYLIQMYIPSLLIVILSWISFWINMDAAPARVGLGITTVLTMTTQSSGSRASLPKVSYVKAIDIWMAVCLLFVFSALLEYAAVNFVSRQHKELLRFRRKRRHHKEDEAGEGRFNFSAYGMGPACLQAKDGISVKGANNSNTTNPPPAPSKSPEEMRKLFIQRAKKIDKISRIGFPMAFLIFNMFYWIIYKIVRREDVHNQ
pEC50: −log10 of the molar value.

[
  {
    "mol": "COC(=O)[C@H]1[C@@H](OC(=O)c2ccccc2)C[C@@H]2CC[C@H]1N2C",
    "pEC50": 5.92
  }
]

====

# Response values compiled below
target: coca-5HT3 (α7(L141G,G175K,Y210F,Y217F)–5HT3) (Homo sapiens, UniProt P36544, G175K/L141G/Y210F/Y217F); experiment: Membrane potential assay, coca-5HT3 in HEK293; conditions: coca-5HT3; conc 10 uM; ED Fig. 2c
endpointLabel: Response

[
  {
    "molecule": "COC(=O)[C@H]1[C@@H](OC(=O)c2ccccc2)C[C@@H]2CC[C@H]1N2C",
    "measuredResult": 1.023
  },
  {
    "molecule": "CC(=O)Oc1ccc2c3c1O[C@H]1[C@@H](OC(C)=O)C=C[C@H]4[C@@H](C2)N(C)CC[C@@]341",
    "measuredResult": 0.109
  },
  {
    "molecule": "CN1CCC[C@H]1c1cccnc1",
    "measuredResult": 0.163
  },
  {
    "molecule": "COc1ccc2c3c1O[C@H]1C(=O)CC[C@@]4(O)[C@@H](C2)N(C)CC[C@]314",
    "measuredResult": 0.081
  },
  {
    "molecule": "CN[C@@H](C)Cc1ccccc1",
    "measuredResult": 0.224
  },
  {
    "molecule": "CN1CC[C@]23c4c5ccc(O)c4O[C@H]2[C@@H](O)C=C[C@H]3[C@H]1C5",
    "measuredResult": 0.069
  },
  {
    "molecule": "CC(N)Cc1ccccc1 (stereo not shown)",
    "measuredResult": 0.028
  }
]

====

molecular target: α7–GlyR mutant chimeric channels (Homo sapiens, UniProt P36544, P216A); assay: Membrane potential assay screen, mutant α7–GlyR chimeric channels; format: cell-based; details: EC50 at α7 GlyR P216A, Avg, sheet 1d

[
  {
    "mol": "COC(=O)[C@H]1[C@@H](OC(=O)c2ccccc2)C[C@@H]2CC[C@H]1N2C",
    "EC50": "> 30 µM"
  }
]

====

molecular target: α7–GlyR mutant chimeric channels (Homo sapiens, UniProt P36544, L141F); experiment: Membrane potential assay screen, mutant α7–GlyR chimeric channels; type: cell-based; conditions: EC50 at α7 GlyR L141F, sheet 1d; single determinations
Sequence (P36544 23-230 L141F, one chain of several): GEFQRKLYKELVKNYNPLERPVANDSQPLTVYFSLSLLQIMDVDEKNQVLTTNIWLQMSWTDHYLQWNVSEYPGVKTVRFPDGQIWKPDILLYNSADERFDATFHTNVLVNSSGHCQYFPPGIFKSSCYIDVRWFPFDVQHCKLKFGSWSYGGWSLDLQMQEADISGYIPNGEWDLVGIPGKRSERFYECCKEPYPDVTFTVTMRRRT

[
  {
    "mol": "COC(=O)[C@H]1[C@@H](OC(=O)c2ccccc2)C[C@@H]2CC[C@H]1N2C",
    "EC50": "> 30 µM"
  }
]

====

target: coca-5HT3 (α7(L141G,G175K,Y210F,Y217F)–5HT3) (Homo sapiens, UniProt P36544, G175K/L141G/Y210F/Y217F); assay: Membrane potential assay, coca-5HT3 in HEK293; conditions: coca-5HT3; conc 12.3457 uM; ED Fig 3a
// values below are reported Response
endpointLabel: Response

[
  {
    "compound": "CNC[C@H](O)c1ccc(O)c(O)c1 [Epinephrine]",
    "measuredResult": 0.06
  },
  {
    "compound": "N[C@@H](CCC(=O)O)C(=O)O [Glutmate]",
    "measuredResult": 0
  },
  {
    "compound": "NCCc1c[nH]c2ccc(O)cc12 [Serotonin]",
    "measuredResult": 0.101
  },
  {
    "compound": "COC(=O)[C@H]1[C@@H](OC(=O)c2ccccc2)C[C@@H]2CC[C@H]1N2C [cocaine]",
    "measuredResult": 1.106
  },
  {
    "compound": "NC[C@H](O)c1ccc(O)c(O)c1 [Norepinephrine]",
    "measuredResult": 0.077
  },
  {
    "compound": "N[C@@H](CC(=O)O)C(=O)O [Aspartate]",
    "measuredResult": 0.025
  },
  {
    "compound": "NCCc1c[nH]cn1 [Histamine]",
    "measuredResult": 0.035
  },
  {
    "compound": "NCCCC(=O)O [GABA]",
    "measuredResult": 0.041
  },
  {
    "compound": "N[C@H](CO)C(=O)O [D-serine]",
    "measuredResult": 0.037
  },
  {
    "compound": "NCCc1ccc(O)c(O)c1 [Dopamine]",
    "measuredResult": 0.04
  },
  {
    "compound": "CCCCC/C=C\\C/C=C\\C/C=C\\C/C=C\\CCCC(=O)NCCO [Anandamide]",
    "measuredResult": 0.046
  },
  {
    "compound": "NCC(=O)O [Glycine]",
    "measuredResult": 0.032
  },
  {
    "compound": "Nc1ncnc2c1ncn2[C@@H]1O[C@H](CO)[C@@H](O)[C@H]1O [adenosine]",
    "measuredResult": 0.079
  }
]
